Sourced from patent US20240124504A1

# assay summary: Caco-2 membrane permeability and efflux rate
# Format: in vitro ADME
# assay setup: human, Caco-2, Caco-2, 5 μM, read-out: ER (efflux rate)
property measured: efflux ratio at 2 h, 5 μM

Worked cases, answers included:
CP(C)(=O)c1cccc2c(-c3nc(N[C@H]4CC[C@H](O)C4)ncc3C(F)(F)F)c[nH]c12 ... 16.3
CC[C@@H](CO)Nc1ncc(C(F)(F)F)c(-c2c[nH]c3c(P(C)(C)=O)cccc23)n1 ... 7.77

A. C[C@@H](CO)Nc1ncc(C(F)(F)F)c(-c2c[nH]c3c(P(C)(C)=O)cccc23)n1
B. CP(C)(=O)c1cccc2c(-c3nc(NCCCO)ncc3C(F)(F)F)c[nH]c12
stdin: Hi, I'm comparing A with B and wondering which one has the bigger number for efflux ratio at 2 h, 5 μM. Any idea? State your choice using its label.
stdout: B

====

# target desc: CDK7/cyclinH/MAT1 complex (Homo sapiens)
# Sequence (P50613 whole entry, species assumed): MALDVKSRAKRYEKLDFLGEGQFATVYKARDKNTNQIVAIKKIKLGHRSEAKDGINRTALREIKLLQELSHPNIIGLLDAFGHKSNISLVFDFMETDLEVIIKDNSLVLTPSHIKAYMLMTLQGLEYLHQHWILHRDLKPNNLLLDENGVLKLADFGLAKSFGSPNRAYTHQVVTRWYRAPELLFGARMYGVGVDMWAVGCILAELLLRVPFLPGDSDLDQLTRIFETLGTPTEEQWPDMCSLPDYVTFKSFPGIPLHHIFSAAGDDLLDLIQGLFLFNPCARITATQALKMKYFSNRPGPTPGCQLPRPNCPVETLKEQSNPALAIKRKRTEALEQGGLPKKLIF
# Sequence (P51946 whole entry partner, species assumed): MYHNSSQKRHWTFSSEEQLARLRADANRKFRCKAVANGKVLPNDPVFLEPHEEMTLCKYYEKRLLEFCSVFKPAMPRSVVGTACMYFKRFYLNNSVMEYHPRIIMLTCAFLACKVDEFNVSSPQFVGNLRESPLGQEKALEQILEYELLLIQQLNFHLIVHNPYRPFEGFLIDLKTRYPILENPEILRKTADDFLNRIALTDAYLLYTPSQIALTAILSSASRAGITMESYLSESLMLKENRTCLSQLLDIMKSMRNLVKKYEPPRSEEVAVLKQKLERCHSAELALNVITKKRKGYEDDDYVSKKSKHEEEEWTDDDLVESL
# Sequence (P51948 whole entry partner, species assumed): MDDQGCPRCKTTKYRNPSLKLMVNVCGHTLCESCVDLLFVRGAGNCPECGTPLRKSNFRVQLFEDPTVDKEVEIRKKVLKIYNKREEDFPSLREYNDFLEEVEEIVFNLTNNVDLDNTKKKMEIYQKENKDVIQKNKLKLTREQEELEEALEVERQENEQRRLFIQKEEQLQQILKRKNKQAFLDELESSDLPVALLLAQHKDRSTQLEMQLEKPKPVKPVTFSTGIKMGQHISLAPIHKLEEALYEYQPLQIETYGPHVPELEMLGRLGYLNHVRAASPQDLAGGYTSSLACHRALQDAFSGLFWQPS
# assay summary: In-vitro enzymatic inhibitory activity testing, CDK7 inhibition assay (Caliper EZ Reader II)
# assay setup: CDK7/cyclinH/MAT1 6 nM, 180 min at 27° C.
pIC50: −log10 of the molar value.
property measured: pIC50

Worked cases, answers included:
COc1ccc2c(-c3nc(N[C@@H](C)CO)ncc3C(F)(F)F)c[nH]c2c1P(C)(C)=O ... 6.70 to 7.70
C[C@@H](CO)Nc1ncc(C(F)(F)F)c(-c2c[nH]c3c(P(C)(C)=O)c(F)ccc23)n1 ... > 7.70
CP(C)(=O)c1cccc2c(-c3nc(N[C@@H]4CC[C@@]5(CCNC5)C4)ncc3C(F)(F)F)c[nH]c12 ... > 7.70

Now look at this entry.
stdin: Which pIC50 value is on record for CP(C)(=O)c1cccc2c(-c3nc(NCC4CC(O)C4)ncc3C(F)(F)F)c[nH]c12 (stereo not shown) ?
stdout: > 7.70

====

Each entry below carries its recorded pIC50.
# target desc: CDK9/cyclinT1 complex (Homo sapiens, UniProt P50750)
# Sequence (P50750 whole entry, species assumed): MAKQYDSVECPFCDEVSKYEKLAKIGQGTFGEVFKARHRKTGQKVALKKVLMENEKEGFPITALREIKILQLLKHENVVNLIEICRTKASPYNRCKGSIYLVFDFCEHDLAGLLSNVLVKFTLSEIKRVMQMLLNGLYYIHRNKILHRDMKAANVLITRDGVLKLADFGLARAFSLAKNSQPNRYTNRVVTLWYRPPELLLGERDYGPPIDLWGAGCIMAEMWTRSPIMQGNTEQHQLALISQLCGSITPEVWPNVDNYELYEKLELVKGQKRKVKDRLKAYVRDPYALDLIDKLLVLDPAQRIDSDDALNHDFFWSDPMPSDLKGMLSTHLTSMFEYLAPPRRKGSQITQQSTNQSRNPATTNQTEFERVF
# Sequence (O60563 whole entry partner, species assumed): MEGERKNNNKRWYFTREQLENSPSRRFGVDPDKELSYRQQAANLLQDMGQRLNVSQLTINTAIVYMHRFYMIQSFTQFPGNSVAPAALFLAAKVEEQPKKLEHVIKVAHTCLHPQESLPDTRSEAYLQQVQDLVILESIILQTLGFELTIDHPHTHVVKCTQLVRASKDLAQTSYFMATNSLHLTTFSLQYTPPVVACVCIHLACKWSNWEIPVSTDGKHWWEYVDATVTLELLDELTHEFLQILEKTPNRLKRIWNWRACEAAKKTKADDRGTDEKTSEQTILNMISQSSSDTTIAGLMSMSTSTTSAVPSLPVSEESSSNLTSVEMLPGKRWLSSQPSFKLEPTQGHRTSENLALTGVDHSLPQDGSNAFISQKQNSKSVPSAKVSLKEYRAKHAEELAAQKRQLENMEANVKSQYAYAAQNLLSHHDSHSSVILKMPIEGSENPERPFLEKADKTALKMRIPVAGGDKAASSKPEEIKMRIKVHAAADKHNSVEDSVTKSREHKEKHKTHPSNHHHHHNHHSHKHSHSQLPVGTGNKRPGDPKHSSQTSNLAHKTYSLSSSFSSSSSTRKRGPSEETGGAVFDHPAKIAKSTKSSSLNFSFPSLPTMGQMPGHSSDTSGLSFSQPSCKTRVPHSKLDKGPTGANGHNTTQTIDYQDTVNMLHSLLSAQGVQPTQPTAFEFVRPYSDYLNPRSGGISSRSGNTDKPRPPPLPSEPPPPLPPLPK
# assay summary: In-vitro enzymatic inhibitory activity testing, CDK9 inhibition assay (Caliper EZ Reader II)
# assay setup: CDK9/cyclinT1 8 nM, 180 min at 27° C.
pIC50: −log10 of the molar value.

Worked cases, answers included:
CP(C)(=O)c1cccc2c(-c3nc(NC4CC45CCNC5)ncc3C(F)(F)F)c[nH]c12 (single isomer, unassigned) [Compound 109] ... < 4.30
FC(F)(F)c1cnc(NC2CCCC3(CCCN3)C2)nc1-c1c[nH]c2nc(N3CCOCC3)ccc12 (stereo not shown) ... 4.30 to 5.30
FC(F)(F)c1cnc(NC2CCCNCC2)nc1-c1c[nH]c2nc(N3CCOCC3)ccc12 (single isomer, unassigned) [Compound 48] ... 4.30 to 5.30

stdin: Which pIC50 value is on record for CC(O)[C@H](C)Nc1ncc(C(F)(F)F)c(-c2c[nH]c3c(P(C)(C)=O)cccc23)n1 (mixture of isomers) [Compound 128] ?
stdout: < 4.30

stdin: Which pIC50 value is on record for CP(C)(=O)c1cccc2c(-c3nc(N[C@@H]4COCC[C@H]4O)ncc3C(F)(F)F)c[nH]c12 ?
stdout: < 4.30

stdin: Which pIC50 value is on record for C[C@@H](CO)Nc1nccc(-c2c[nH]c3c(P(C)(C)=O)cccc23)n1 ?
stdout: < 4.30

stdin: Which pIC50 value is on record for FC(F)(F)c1cnc(N[C@H]2CCCNC2)nc1-c1c[nH]c2cc(N3CCCC3)ccc12 [Compound 101, reference compound] ?
stdout: 5.30 to 6.70
